- Species: Homo sapiens
- RUN_DESCRIPTION: Selectivity ratio of pKi for displacement of 2-[125I]iodomelatonin from human melatonin MT1 receptor stably expressed in human HEK293 cell membrane to pKi for displacement of 2-[125I]iodomelatonin from human melatonin MT2 receptor stably expressed in human HEK293 cell membrane
Exercise: state measured Ratio pKi for each of the compounds provided.
Numbers only.

// known answers, use as guide
CC(=O)NCCc1c(C(O)c2ccccc2)[nH]c2ccccc12 (stereo not drawn): 0.93
CC(=O)NCCc1c(C(O)c2ccc(Cl)cc2)[nH]c2ccccc12 (stereo not drawn): 0.99

Now, please, on to the next compound.
Looking up COC(=O)NCCc1c(C(O)c2ccccc2)[nH]c2ccccc12 (stereo not drawn) , I see its Ratio pKi listed as 0.81
